Cited source for all entries: patent US10689367B2

target: human APJ receptor (Homo sapiens (Human)); experiment: [35S]GTPγS binding assay on membranes from CHO cells stably expressing human APJ receptor; assay type: biochemical; details: membranes of CHO cells stably expressing human APJ receptor, read-out: Activity hAPJ SPA EC50 IP
pEC50: −log10 of the molar value.

COMPOUND: CC[C@@H](c1c(C)noc1C)n1c(NS(=O)(=O)[C@@H](C)[C@H](OC)c2ncc(Cl)cn2)nnc1-c1cccc(OC)n1 (single isomer, unassigned) [Example 218.0]
pEC50: 8.43
--
COMPOUND: CC[C@H]([C@@H]1CCCCO1)n1c(NS(=O)(=O)[C@@H](C)[C@H](OC)c2ncc(C)cn2)nnc1-c1cncc(C)c1 (single isomer, unassigned) [Example 334.0]
pEC50: 7.54
--
COMPOUND: CO[C@H](c1ncc(Cl)cn1)[C@H](C)S(=O)(=O)Nc1nnc(-c2cccnc2)n1C(C1CC1)C1CC1
pEC50: 8.48
--
COMPOUND: COC[C@@H](C)n1c(NS(=O)(=O)[C@@H](C)[C@H](C)c2ncc(Cl)cn2)nnc1-c1cccnc1 (single isomer, unassigned) [Example 52.0]
pEC50: 7.80

---

Listed compounds paired with reported log10 EC50
molecular target: human APJ receptor (Homo sapiens (Human)); assay: [35S]GTPγS binding assay on membranes from CHO cells stably expressing human APJ receptor; settings: membranes of CHO cells stably expressing human APJ receptor, read-out: Activity hAPJ SPA EC50 IP
PARAMETER: log10 EC50 (log10 of the value in nM)

COMPOUND: COc1cccc(-c2nnc(NS(=O)(=O)[C@@H](C)[C@H](OC)c3ncc(Cl)cn3)n2C[C@@H]2CCCOC2)n1 (racemic) [Example 312.0]
log10 EC50: 1.11
//
COMPOUND: COc1cccc(-c2nnc(NS(=O)(=O)[C@@H](C)[C@H](OC)c3ncc(Cl)cn3)n2[C@H](C)c2cnn(C)c2)n1 (single isomer, unassigned) [Example 338.0]
log10 EC50: -0.25
//
COMPOUND: CO[C@H](c1ncc(Cl)cn1)[C@H](C)S(=O)(=O)Nc1nnc(-c2cccnc2)n1C(C)C [Example 134.0]
log10 EC50: 2.23
//
COMPOUND: COc1cccc(-c2nnc(NS(=O)(=O)[C@@H](C)[C@H](OC)c3ncc(Cl)cn3)n2[C@H](C)c2cnn(C)c2)n1 (single isomer, unassigned) [Example 339.0]
log10 EC50: 0.49
//
COMPOUND: COc1cccc(-c2nnc(NS(=O)(=O)[C@@H](C)[C@@H](OC(C)C)c3ncc(C)cn3)n2[C@@H](C)[C@H]2CCCO2)n1 (single isomer, unassigned) [Example 273.0]
log10 EC50: 1.36
//
COMPOUND: COc1cccc(-c2nnc(NS(=O)(=O)[C@@H](C)[C@H](OC)c3ncc(Cl)cn3)n2CC2CCO2)n1 (stereo partly shown) [Example 137.0]
log10 EC50: 1.34
//
COMPOUND: COc1cccc(-c2nnc(NS(=O)(=O)[C@@H](C)[C@H](C)c3ncc(Cl)cn3)n2[C@@H](C)c2ncc(C)o2)n1 (single isomer, unassigned) [Example 258.0]
log10 EC50: -0.06

---

target: human APJ receptor (Homo sapiens (Human), UniProt P35414); assay: [35S]GTPγS binding assay on membranes from CHO cells stably expressing human APJ receptor; type: biochemical; details: membranes of CHO cells stably expressing human APJ receptor, read-out: Activity hAPJ SPA EC50 IP
Sequence (P35414 whole entry): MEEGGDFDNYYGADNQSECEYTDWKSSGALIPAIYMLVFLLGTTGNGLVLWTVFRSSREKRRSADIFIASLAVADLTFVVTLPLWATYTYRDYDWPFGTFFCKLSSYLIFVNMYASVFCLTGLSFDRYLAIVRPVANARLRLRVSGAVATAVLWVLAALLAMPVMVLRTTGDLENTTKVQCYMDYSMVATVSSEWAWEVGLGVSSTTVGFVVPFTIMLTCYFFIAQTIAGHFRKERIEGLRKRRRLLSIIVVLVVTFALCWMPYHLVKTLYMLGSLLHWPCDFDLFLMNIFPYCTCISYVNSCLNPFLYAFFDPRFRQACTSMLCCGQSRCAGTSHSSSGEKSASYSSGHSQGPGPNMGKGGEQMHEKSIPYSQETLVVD
Listed compounds paired with reported EC50

COMPOUND: COCC(COC)n1c(NS(=O)(=O)[C@@H](C)[C@@H](OC(C)C)c2cnc(C)cn2)nnc1-c1cccc(OC)n1 [Example 105.0]
MEASURED TARGET: human APJ receptor (Homo sapiens (Human), UniProt P35414)
EC50: 2.8 nM
//
COMPOUND: COc1cccc(-c2nnc(NS(=O)(=O)[C@@H](C)[C@H](OC)c3ncc(Cl)cn3)n2CCc2cccnc2)n1 [Example 284.0]
MEASURED TARGET: human APJ receptor (Homo sapiens (Human), UniProt P35414)
EC50: 120 nM
//
COMPOUND: COc1cccc(-c2nnc(NS(=O)(=O)[C@@H](C)[C@@H](OC(C)C)c3ncc(C)cn3)n2[C@@H](C)c2ccno2)n1 (single isomer, unassigned) [Example 216.0]
MEASURED TARGET: human APJ receptor (Homo sapiens (Human), UniProt P35414)
EC50: 2.2 nM
//
COMPOUND: COc1cnc([C@@H](OC)[C@H](C)S(=O)(=O)Nc2nnc(-c3cccc(OC)n3)n2C2CC2)cn1 [Example 121.0]
MEASURED TARGET: human APJ receptor (Homo sapiens (Human), UniProt P35414)
EC50: 21 nM
//
COMPOUND: COc1cccc(-c2nnc(NS(=O)(=O)[C@@H](C)[C@H](OC)c3ncc(Cl)cn3)n2[C@@H](C)c2ccno2)n1 (mixture of isomers) [Example 200.0]
MEASURED TARGET: human APJ receptor (Homo sapiens (Human), UniProt P35414)
EC50: 0.87 nM

---

molecular target: UniProtKB P35414; test: [35S]GTPγS binding assay on membranes from CHO cells stably expressing human APJ receptor; details: membranes of CHO cells stably expressing human APJ receptor, read-out: Activity hAPJ SPA EC50 IP
pEC50: −log10 of the molar value.
PARAMETER: pEC50

COMPOUND: COc1cccc(-c2nnc(NS(=O)(=O)[C@@H](C)[C@@H](OC(C)C)c3ncc(C)cn3)n2[C@@H](C)c2nc(C)no2)n1 (single isomer, unassigned) [Example 240.0]
RECORDED NUMBER: 8.70
--
COMPOUND: COc1cccc(-c2nnc(NS(=O)(=O)[C@@H](C)[C@H](C)c3ncc(Cl)cn3)n2[C@@H](C)c2ncc(C)o2)n1 (single isomer, unassigned) [Example 257.0]
RECORDED NUMBER: 7.80
--
COMPOUND: COc1cccc(-c2nnc(NS(=O)(=O)[C@@H](C)[C@H](OC)c3ncc(Cl)cn3)n2C2CCC2)n1
RECORDED NUMBER: 7.60
--
COMPOUND: COc1cccc(-c2nnc(NS(=O)(=O)[C@@H](C)[C@@H](OC(C)C)c3ncc(Cl)cn3)n2C(C)C)n1
RECORDED NUMBER: 8.05
--
COMPOUND: COc1cccc(-c2nnc(NS(=O)(=O)[C@@H](C)[C@@H](OC(C)C)c3ncc(C)cn3)n2[C@H](c2conc2C)C2CC2)n1 (single isomer, unassigned) [Example 230.0]
RECORDED NUMBER: 9.30
--
COMPOUND: COC[C@H](C)n1c(NS(=O)(=O)[C@@H](C)[C@@H](OC(C)C)c2ncc(Cl)cn2)nnc1-c1cccc(OC)n1
RECORDED NUMBER: 9.19
--
COMPOUND: COc1cccc(-c2nnc(NS(=O)(=O)[C@@H](C)[C@H](OC)c3ncc(Cl)cn3)n2Cc2cc(C)on2)n1
RECORDED NUMBER: 8.27

---

Listed compounds paired with reported EC50
target: UniProtKB P35414; assay: [35S]GTPγS binding assay on membranes from CHO cells stably expressing human APJ receptor; conditions: membranes of CHO cells stably expressing human APJ receptor, read-out: Activity hAPJ SPA EC50 IP

COMPOUND: COc1cccc(-c2nnc(NS(=O)(=O)[C@@H](C)[C@H](OC)c3ncc(Cl)cn3)n2CCC#N)n1
MEASURED TARGET: UniProtKB P35414
QUANTITY UNIT: nM
EC50: 4.9
//
COMPOUND: COc1cccc(-c2nnc(NS(=O)(=O)[C@@H](C)[C@H](OC)c3ncc(Cl)cn3)n2C23CC(C2)C3)n1
MEASURED TARGET: UniProtKB P35414
QUANTITY UNIT: nM
EC50: 49
//
COMPOUND: CC[C@@H](c1c(C)noc1C)n1c(NS(=O)(=O)[C@@H](C)[C@H](OC)c2cnc(C)cn2)nnc1-c1cccc(OC)n1 (single isomer, unassigned) [Example 222.0]
MEASURED TARGET: UniProtKB P35414
QUANTITY UNIT: nM
EC50: 58
//
COMPOUND: COC[C@@H](C)n1c(NS(=O)(=O)[C@@H](C)[C@H](OC)c2ncc(Cl)cn2)nnc1-c1ccccn1
MEASURED TARGET: UniProtKB P35414
QUANTITY UNIT: nM
EC50: 24

---

molecular target: UniProtKB P35414; assay: [35S]GTPγS binding assay on membranes from CHO cells stably expressing human APJ receptor; details: membranes of CHO cells stably expressing human APJ receptor, read-out: Activity hAPJ SPA EC50 IP
pEC50: −log10 of the molar value.
Where pEC50 equals or exceeds 8, the correct label is TRUE; where it does not, the label is FALSE.

COMPOUND: Cc1cnc([C@H](OC(C)C)[C@H](C)S(=O)(=O)Nc2nnc(-c3cncc(C)c3)n2C2(C)CC2)nc1
QUALITATIVE LABEL: FALSE
--
COMPOUND: COc1ccc(Cn2c(NS(=O)(=O)[C@@H](C)[C@H](OC)c3ncc(Cl)cn3)nnc2-c2cccc(OC)n2)cc1
QUALITATIVE LABEL: TRUE
--
COMPOUND: COc1cccc(-c2nnc(NS(=O)(=O)[C@@H](C)[C@H](OC)c3ncc(Cl)cn3)n2[C@H](C)c2cncnc2)n1 (single isomer, unassigned) [Example 337.0]
QUALITATIVE LABEL: TRUE
--
COMPOUND: CC[C@H]([C@@H]1CCCCO1)n1c(NS(=O)(=O)[C@@H](C)[C@H](OC)c2ncc(C)cn2)nnc1-c1cccc(OC)n1 (single isomer, unassigned) [Example 331.0]
QUALITATIVE LABEL: TRUE
--
COMPOUND: COCCn1c(NS(=O)(=O)[C@H](C)[C@@H](C)c2ncc(Cl)cn2)nnc1-c1cccnc1 (stereo in doubt)
QUALITATIVE LABEL: FALSE
--
COMPOUND: COc1cccc(-c2nnc(NS(=O)(=O)[C@@H](C)[C@H](OC)c3ncc(Cl)cn3)n2Cc2ccon2)n1
QUALITATIVE LABEL: TRUE
--
COMPOUND: COCC(COC)n1c(NS(=O)(=O)[C@@H](C)[C@H](C)c2cnc(C)cn2)nnc1-c1cccnc1
QUALITATIVE LABEL: FALSE
--
COMPOUND: COc1cc(Cn2c(NS(=O)(=O)[C@@H](C)[C@H](C)c3ncc(Cl)cn3)nnc2-c2cccc(OC)n2)on1
QUALITATIVE LABEL: FALSE
--
COMPOUND: COc1cccc(-c2nnc(NS(=O)(=O)[C@@H](C)[C@H](OC)c3ncc(Cl)cn3)n2[C@H](C)c2cncc(F)c2)n1 (single isomer, unassigned) [Example 349.0]
QUALITATIVE LABEL: TRUE
--
COMPOUND: CC[C@@H](c1c(C)noc1C)n1c(NS(=O)(=O)[C@@H](C)[C@H](OC)c2ncc(Cl)cn2)nnc1-c1cccc(OC)n1 (single isomer, unassigned) [Example 219.0]
QUALITATIVE LABEL: TRUE
--
COMPOUND: COc1cccc(-c2nnc(NS(=O)(=O)[C@@H](C)[C@H](OC)c3ncc(Cl)cn3)n2[C@@H]2CCC23CCC3)n1 (single isomer, unassigned) [Example 93.0]
QUALITATIVE LABEL: TRUE
--
COMPOUND: COc1cccc(-c2nnc(NS(=O)(=O)[C@@H](C)[C@H](OC)c3ncc(Cl)cn3)n2[C@@H]2CC[C@H]2OC)n1 (single isomer, unassigned) [Example 161.0]
QUALITATIVE LABEL: TRUE
--
COMPOUND: COC[C@@H](C)n1c(NS(=O)(=O)[C@@H](C)[C@H](C)c2ncc(Cl)cn2)nnc1-c1cccnc1 (single isomer, unassigned) [Example 53.0]
QUALITATIVE LABEL: FALSE
--
COMPOUND: COc1cccc(-c2nnc(NS(=O)(=O)[C@@H](C)[C@@H](OC(C)C)c3ncc(C)cn3)n2[C@@H](C)[C@H]2CCCO2)n1 (single isomer, unassigned) [Example 275.0]
QUALITATIVE LABEL: FALSE
--
COMPOUND: COc1cccc(-c2nnc(NS(=O)(=O)[C@@H](C)[C@H](C)c3ncc(Cl)cn3)n2C[C@H]2CCCO2)n1 (racemic) [Example 281.0]
QUALITATIVE LABEL: FALSE
--
COMPOUND: CCn1c(NS(=O)(=O)[C@@H](C)[C@H](OC)c2ncc(Cl)cn2)nnc1-c1ccccn1
QUALITATIVE LABEL: FALSE
--
COMPOUND: CCc1noc(C)c1Cn1c(NS(=O)(=O)[C@@H](C)[C@H](OC)c2cnc(C)cn2)nnc1-c1cccc(OC)n1
QUALITATIVE LABEL: FALSE
--
COMPOUND: COc1cccc(-c2nnc(NS(=O)(=O)[C@@H](C)[C@@H](OC(C)C)c3ncc(C)cn3)n2[C@@H](C)c2ncnn2C)n1 (single isomer, unassigned)
QUALITATIVE LABEL: FALSE
--
COMPOUND: COc1cccc(-c2nnc(NS(=O)(=O)[C@@H](C)[C@H](C)c3ncc(Cl)cn3)n2[C@@H](C)c2c(C)noc2C)n1 (racemic) [Example 313.0]
QUALITATIVE LABEL: FALSE
